# assay.comment: The compound was evaluated for time dependent inhibitory activity against Lipoprotein associated Phospholipase A2 (Lp-PLA2) enzyme after 10 min incubation.
Would you kindly list pIC50 for each of these compounds?
Please express pIC50 as -log10 of the molar concentration.

Using the record for "CCCCCCCCCCCCNC(=O)/C=C1/OC(=O)N2CCC[C@@H]12" , state its measured pIC50.
6.77

Using the record for "CCCCCCCCCCCCCCNC(=O)/C=C1/OC(=O)N2CCC[C@@H]12" , state its measured pIC50.
7.55

Using the record for "CCCCCCCCCCCCCCCCNC(=O)/C=C1/OC(=O)N2CCC[C@@H]12" , state its measured pIC50.
7.60

Using the record for "CCCCCCCCCCCCCCCCNC(=O)/C=C1/OC(=O)N2CCC[C@H]12" , state its measured pIC50.
7.92

Using the record for CCCCCCCCCCC[C@H](CC(=O)NC(=O)/C=C1/OC(=O)N2CCCC12)O[C@@H]1O[C@@H](C)[C@H](O)[C@@H](O)[C@H]1O (stereo not given in full) , state its measured pIC50.
7.29
